This collection of values is drawn from patent US6465686B2.

- target desc: human neuronal constitutive NOS (hncNOS) (Homo sapiens, UniProt P29475)
- Construct: made in house; host or cells: Sf9 insect cells (baculovirus vector)
- protocol description: Citrulline assay for nitric oxide synthase, hncNOS
- Type: biochemical
- applied conditions: recombinant enzyme, conversion of L-[2,3-3H]-arginine to citrulline, 30 μM L-arginine, calmodulin included
pIC50: −log10 of the molar value. Structures can show the parent of a compound that is named as a salt.

{"columns": ["compound", "pIC50"],
 "data": [
  ["CC(=N)NC/C(F)=C\\CC[C@@H](N)C(=O)O [Example 5, dihydrochloride, monohydrate]", 4.54],
  ["CC(=N)NC/C(F)=C\\CC[C@H](N)C(=O)O [Example 1, dihydrochloride, monohydrate]", 5.44],
  ["CC(=N)NC/C(F)=C/CC[C@H](N)C(=O)O [Example 4, trihydrochloride, dihydrate]", 4.19],
  ["CC(=N)NCC(F)=CCC[C@H](N)C(=O)O (mixture of isomers) [Example 2, dihydrochloride]", 4.68],
  ["CC(=N)NC/C(F)=C/CC[C@H](N)C(=O)O [Example 3, dihydrochloride]", 3.98]
]}

* * *

- target desc: Human inducible NOS (hiNOS) (Homo sapiens, UniProt P35228)
- protocol description: Citrulline assay for nitric oxide synthase, hiNOS
- applied conditions: recombinant enzyme, conversion of L-[2,3-3H]-arginine to citrulline, 30 μM L-arginine
Structures can show the parent of a compound that is named as a salt.

{"columns": ["compound", "target desc", "op", "IC50, µM"],
 "data": [
  ["CC(=N)NC/C(F)=C\\CC[C@H](N)C(=O)O [Example 1, dihydrochloride, monohydrate]", "Human inducible NOS (hiNOS) (Homo sapiens, UniProt P35228)", "=", 0.36],
  ["CC(=N)NC/C(F)=C/CC[C@H](N)C(=O)O [Example 3, dihydrochloride]", "Human inducible NOS (hiNOS) (Homo sapiens, UniProt P35228)", "=", 12],
  ["CC(=N)NCC(F)=CCC[C@H](N)C(=O)O (mixture of isomers) [Example 2, dihydrochloride]", "Human inducible NOS (hiNOS) (Homo sapiens, UniProt P35228)", "=", 2.2],
  ["CC(=N)NC/C(F)=C\\CC[C@@H](N)C(=O)O [Example 5, dihydrochloride, monohydrate]", "Human inducible NOS (hiNOS) (Homo sapiens, UniProt P35228)", "<", 5],
  ["CC(=N)NC/C(F)=C/CC[C@H](N)C(=O)O [Example 4, trihydrochloride, dihydrate]", "Human inducible NOS (hiNOS) (Homo sapiens, UniProt P35228)", "=", 8.6]
]}
